Fluorescence competitive binding assay, OBP2 (raw fluorescence reading) listing for selected molecules.
Molecular target: SfurOBP2 (Sogatella furcifera)
Sequence (V5T759 entry or part of it): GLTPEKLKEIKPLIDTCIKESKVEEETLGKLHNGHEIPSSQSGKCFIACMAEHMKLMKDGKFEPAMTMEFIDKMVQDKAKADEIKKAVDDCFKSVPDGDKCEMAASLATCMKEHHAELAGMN
Assay: biochemical
Format: binding
Details: ligand concentration 2 (unit not given), replicate column 2 of 3
Provide a numeric answer; units are not to be included.

Specify Fluorescence competitive binding assay, OBP2 (raw fluorescence reading) for C=CC(C)(O)CCC=C(C)CCC=C(C)C (mixture of isomers) and stop. 14676

Check the records and state Fluorescence competitive binding assay, OBP2 (raw fluorescence reading) for CC/C=C\CCO [(Z)-3-hexenol] 19248

Find the measured Fluorescence competitive binding assay, OBP2 (raw fluorescence reading) of CC(=O)/C=C/C1=C(C)CCCC1(C)C and report it. 19168

Supply measured Fluorescence competitive binding assay, OBP2 (raw fluorescence reading) of C[C@@H]1CC[C@H]2C(C)(C)[C@H]3C[C@@]12CC[C@@]3(C)O in your reply. 23498

Please supply the value of reported Fluorescence competitive binding assay, OBP2 (raw fluorescence reading) for the item COC(=O)c1ccccc1 19349

Origin of the recorded values: paper PMC6409085
